System: MS2 coat protein
Assay: apparent KD of MS2 coat protein, switch OFF state (with FMN for OFF switches, without FMN for ON switches); designed switch direction (-1 OFF switch, 1 ON switch): -1; higher = weaker reporter binding
Settings: FMN input: 0 or 200 uM; Eterna round: R93 (includes R88 designs)
Metric Name: apparent KD of MS2 coat protein (nM)

sequence_code="AAGAAACAUGAGGAUCACCCAUGUGAGGAUAUACAAAAGAAAAGAAAAGAAAGAAGAAGUAGAAGGCACAAAGG [Djedkare Shemai]" tested_on="MS2 coat protein" value_units=nM quantitative_readout=20.3
sequence_code="AAGUUGCUAGGAUAUACUUGGGCAACAAAUGAACCAAUAUAACAUGAGGAUCACCCAUGUAGAAGGAGCAGAAA [JR_Exc002_Sub301]" tested_on="MS2 coat protein" value_units=nM quantitative_readout=63.5
sequence_code="AAAACUGGAGGAUAUACAUGAGGAUCACCCAUGUGUGGGUGGGCUGUGUCGGCGUCAGGUAGAAGGCCACAAAA [Gilly Gone Silly 33 - Jieux - Exclusion 3]" tested_on="MS2 coat protein" value_units=nM quantitative_readout=108
sequence_code="AAAGGACGAGGAUAUACAUGAGGAUCACCCAUGUAAAAAACGUAAUAAAAUAACUUAUGUAGAAGGCGUCCAAA [Mat - Exclusion 3 - Eli mod - D98]" tested_on="MS2 coat protein" value_units=nM quantitative_readout=214
